Target: Grb2 SH2 (UniProt P62993)
Sequence (P62993 whole entry, looked up, the tested form may be a part): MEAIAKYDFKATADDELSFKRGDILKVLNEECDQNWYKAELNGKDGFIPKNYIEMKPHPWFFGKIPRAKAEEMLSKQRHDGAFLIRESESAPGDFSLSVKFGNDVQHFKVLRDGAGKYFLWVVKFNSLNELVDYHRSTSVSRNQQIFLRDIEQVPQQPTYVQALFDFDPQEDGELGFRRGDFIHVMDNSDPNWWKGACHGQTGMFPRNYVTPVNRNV
Assay: SH2 binding enrichment of the phosphorylated peptide, bacterial display (enrichment ratio); higher = better substrate or ligand; peptides without Tyr show the background;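 further: peptide library displayed on the E. coli surface as eCPX fusions, selected cells deep-sequenced, score is each peptide's frequency after selection divided by its frequency in the input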

| residue_string | tested_on | SH2 binding enrichment |
| --- | --- | --- |
| EKKDVYKTGEQ [CFH_Y1008_A1010T] | Grb2 SH2 (UniProt P62993) | 0.771 |
| CEAMEYLESKQ [BTK_Y511] | Grb2 SH2 (UniProt P62993) | 0.676 |
| EPAVLYNLKER [MYH7_Y103_D107E] | Grb2 SH2 (UniProt P62993) | 0.773 |
| HSQEDYFECFQ [ZIM2_Y411] | Grb2 SH2 (UniProt P62993) | 0.639 |
| GNLLIYTELGK [HGD_Y166_F169L] | Grb2 SH2 (UniProt P62993) | 0.756 |
| VHNLDYFKQTT [FGFR3_Y647_K650Q_YF] | Grb2 SH2 (UniProt P62993) | 0.795 |
| EMQAAYQKVVA [HBD_Y131_Q126E] | Grb2 SH2 (UniProt P62993) | 0.688 |

---

Molecular target: c-Src SH2
Assay: SH2 binding enrichment of the phosphorylated peptide, bacterial display (enrichment ratio); higher = better substrate or ligand; peptides without Tyr show the background
endpoint_label: SH2 binding enrichment

| residue_string | endpoint_label | endpoint_value |
| --- | --- | --- |
| KMGNEYVTKGQ [MYH7_Y410_V406M] | SH2 binding enrichment | 0.408 |
| EMQAAYQKVVA [HBD_Y131_Q126E] | SH2 binding enrichment | 0.65 |
| IPKTWYSAEQF [CD207_Y217] | SH2 binding enrichment | 0.574 |
| EEETDYTPVWC [UROD_Y30_G25E] | SH2 binding enrichment | 0.638 |
| EDSEFYKAFEE [CASQ2_Y179_YF] | SH2 binding enrichment | 0.506 |
| DPGVSYCTREE [PDHA1_Y301_R302C] | SH2 binding enrichment | 0.581 |
| NTGGFYDLFGG [PTPN11_Y63_D61G_YF] | SH2 binding enrichment | 0.677 |
| SVTCTDSPALN [TP53_Y126_Y126D] | SH2 binding enrichment | 0.419 |
| ADRTRYSAFGG [RBM4_Y361_A359T] | SH2 binding enrichment | 0.617 |
| MKNQKYGRIIM [HSD17B4_Y143_K140N] | SH2 binding enrichment | 1.05 |
| HNLDFYKMTTN [FGFR3_Y648_K650M_YF] | SH2 binding enrichment | 0.474 |
| PVFIKYLPEWT [PSEN1_Y240_L235P] | SH2 binding enrichment | 0.606 |
| CSEETYRLMLQ [RET_Y981_M980T] | SH2 binding enrichment | 0.467 |
| PPGRSYSPYDY [TNS1_Y793] | SH2 binding enrichment | 3.08 |
| LNLKEYNLVGG [GNAQ_Y356] | SH2 binding enrichment | 1.17 |
| YEDTLYTVLHR [UNC13D_Y61_A59T] | SH2 binding enrichment | 2.26 |
| HHIDFYKETTN [FGFR1_Y654_K656E_YF] | SH2 binding enrichment | 0.761 |
| PLGKDYRKVEG [MAP1A_Y1909_A1912V] | SH2 binding enrichment | 0.385 |
| SLDLSYFHTSS [EMD_Y181_P183H_YF] | SH2 binding enrichment | 0.599 |
| CIILLYIFLKN [STXBP1_Y411_R406C] | SH2 binding enrichment | 1.49 |
| MHLRQYELLGG [GNAS_Y391] | SH2 binding enrichment | 7.91 |
| TLKDVCDDGKF [RPS6KA3_Y483_Y483C_YF] | SH2 binding enrichment | 0.66 |
| MHDSNYVSKGS [PDGFRA_Y849] | SH2 binding enrichment | 0.404 |
| CTTIHYNYMGN [TP53_Y234_C238G] | SH2 binding enrichment | 1.3 |
| AAVDEYLEYRR [FAM221A_Y17] | SH2 binding enrichment | 0.539 |
| MSRDVYSTDCY [NTRK2_Y702_Y706C] | SH2 binding enrichment | 0.932 |
| DENWFYTRPAS [RPS19_Y54_A57P] | SH2 binding enrichment | 1.01 |
| LEITWYPFDME [RIPOR2_Y316_V320M] | SH2 binding enrichment | 0.591 |
